Attribution: the RNAGym collection of RNA variant scans (doi:10.7554/elife.90254)

B1: LINE1-full (parent)
chain: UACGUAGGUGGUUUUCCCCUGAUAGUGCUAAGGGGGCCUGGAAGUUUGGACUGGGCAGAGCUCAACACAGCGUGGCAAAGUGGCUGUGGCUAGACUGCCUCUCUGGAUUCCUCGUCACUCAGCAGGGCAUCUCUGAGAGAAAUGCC

variants of: B1; assay: self-cleavage, relative activity (ratio to wild type); higher = more cleavage; in vitro, sequencing; the parent is a self-cleaving ribozyme
outcome.measure: self-cleavage

| variant.label | measured.result |
| --- | --- |
| U73C A77U | 1.31 |
| U23A A59G | 0.24 |
| A77G U81C | 2.1 |
| C61G A124U | 0.11 |
